- Tested on: MS2 coat protein
- Experiment Summary: apparent KD of MS2 coat protein; designed switch direction (-1 OFF switch, 1 ON switch): -1; higher = weaker reporter binding
- Experimental Conditions: input ligand: none
Property Name: apparent KD of MS2 coat protein (nM)
One number for each entry, in nM.

Completed entries (count: 4):
| Chain Sequence | System Name | apparent KD of MS2 coat protein / nM |
| --- | --- | --- |
| UUGUUAUAUGUAGGAUAUGCGUAUUAUUAUUGGGCAGAAGGACAUGAGGAUCACCCAUGUAUGUUGUUGUUAUAUAUUAUAUAU [Title] (Eterna round: R96, puzzle: Exclusion NG 1) | MS2 coat protein | 44.4 |
| ACAUGAGGAUCACCCAUGUGAAACCAAUGGCUGACUUUGAGACAGGAUAUUCGUGCAUAUCAUACGAAGAAGGGUCAUUACUGG [Deportation 96 - Jieux - Exclusion NG 3] (Eterna round: R96, puzzle: Exclusion NG 3) | MS2 coat protein | 55.2 |
| GCUGGUCAAGGAUAUACAUUCGUGCUUCGGCACGUAAGAUCACAUGAGGAUCACCCAUGUAGAAGGUGACCAGC [E2/5-C1] (Eterna round: R97, puzzle: Exclusion 2) | MS2 coat protein | 112 |
| GCACCAUGGCUUACUAGCCGUUAAACAUGAGGAUCACCCAUGUAGGAUAUGGUCUGGAUUACAGGCCAGAAGGGCGUAAGGUGC [JL Eli 026 mod] (Eterna round: R96, puzzle: Exclusion NG 3) | MS2 coat protein | 19.8 |

// switching to the query sequence
Ask | Form field: reported apparent KD of MS2 coat protein of UAGAAGUCAGGAUAUCCAUGGCGGCACUUGCGUGGUGGCGUGGAGAAGGGACAUGAGGAUCACCCAUGUAAAGG [salish99-ex4-045] (Eterna round: R96, puzzle: Exclusion 4)
Reply | 100

====

- Test system: K4 kissing-loop RNA reporter
- Experiment Summary: apparent KD of K4 kissing-loop reporter; higher = weaker reporter binding
- Experimental Conditions: Eterna round: R107; input ligand: tryptophan 2.4 mM
Property Name: apparent KD of K4 kissing-loop reporter
Give the value; after it, write the unit.

| Chain Sequence | Property Name | Meas Value |
| --- | --- | --- |
| AUCGUUGUCUGAGGAUAUCGUUUUACUGUAGUGAUGUUACAGAAAAUUCACAUUAUAAUUUCUAUUCGAGAAGGCAGACUACGUA [JR_ExcFMNB_Sub015] | apparent KD of K4 kissing-loop reporter | 120 nM |
| AGUACGGUGCCGUUCAGAUCAACGUAUGAUACCAGCUCGUAUAUUAGCCCUUGGCAGCAUCCGAGUGAUGUUCGGAUUGUGCCAC [theeternabot_exclusion_KL_Theo_A_45] | apparent KD of K4 kissing-loop reporter | 102 nM |
| UGUGUUGUUUUGAUGUUUGUUGUAAAAUGGCAGGAUAUCGUAGAGGCGAGAAGGGCUUUUAUGCGUUAUGAGUGAUGUUUGUAGG [zvvczmullin] | apparent KD of K4 kissing-loop reporter | 263 nM |

Your task in this section: give apparent KD of K4 kissing-loop reporter for each listed record.
1. CGGAGUGAUGUUCCUUUUAUUAAUUAUUUACGAGGACCGGUACGGCCGCCACUCGAUUUAGCUUUUAUUUAAUGCUUGGAUGUUU [JR_SSTryptoA_Sub004]
2. AAAAUAAACCAGUGAUGUUGGUGUCCAGAUACCAGCGACGAAAGUCGCCCUUGGCAGCUGUGGACGUACAAAAUAAGUACGUCCU
3. CUGCAAAAGUCGGCCGCCACUCCGGGCCCUAUAAAUGGGCGCAGUGAUGUUGCGGCUAGGCCUCUGAGGACCGGGACUUUGUAAC [Aratan]

Reply |
1: 66.3 nM; 2: 290 nM; 3: 218 nM

====

- System: K4 kissing-loop RNA reporter;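 note: bound reporter read as fluorescence of individual clusters on recovered sequencing chips by microscopy, with normalized cluster intensities fitted with a binding model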
- Experiment Summary: apparent KD of K4 kissing-loop reporter; higher = weaker reporter binding
- Experimental Conditions: Eterna round: R107; input ligand: none
Lab note: compare apparent KD of K4 kissing-loop reporter against 0.1 µM. Equal or greater, write true. Smaller, write false.

| Chain Sequence | System Name | Class Name |
| --- | --- | --- |
| GCUAGCAUGGCAGGAUAUAGCAAUAGGAGUGAUGUUCCUUGGUAGGUGAGUGAUGUUCACUACCAACUAGAAGGGCCAUGCUAGC | K4 kissing-loop RNA reporter | true |
| AAUGAUGAUUGACACAUUUACUAAAAGGAAGGAGCGGCGAAGUAGCCAGGUAGGUCGCCUUAUAGCAGUGAUGUUGCUAUUUGUU [JR_Nu_ExcArginiA_Sub027] | K4 kissing-loop RNA reporter | false |
| AUUCGUUUAUGUGAUACCAGACUUUGCAGUGAUGUUGCAUUAAUUAUUGAUGAUUAGUUUGUCCCUUGGCAGCACUAUUUAUUUA [JR_SSTheophyB_Sub003] | K4 kissing-loop RNA reporter | false |
| CGAUAUAAGAAUAUAUAUCUCUAUUCAGAAGGAGCGUGUUUGUACACAGGUAGGUCGCUGAAAUUUAAACUAGUGAUGUUAGACU [JR_SSArginiA_Sub002] | K4 kissing-loop RNA reporter | true |
| UUAUAUUUUAUAUUUAGUAGAGCUCUAGCUCGAGGACCGGUACGGCCGCCACUCGAGUGAUGUUCGAGUGGAAGAGCUCUACAUU [AK3.1 EXC Tryptophan A] | K4 kissing-loop RNA reporter | true |

Now consider a different sequence.
Ask | Quick check: does UGUACCGAGUCAGGAUAUACCGUCGAAAGACGAAAUGGAGUGAUGUUCCUUAAACUGCGAAAGCAGGUAGAAGGGACUUGGUACU [FmnBS 30 #SwitchBubble #StaticStem #DoubleMagnetSystem] have apparent KD of K4 kissing-loop reporter greater than or equal to 0.1 µM?
Reply | true

====

- Test system: MS2 coat protein
- Experiment Summary: apparent KD of MS2 coat protein; designed switch direction (-1 OFF switch, 1 ON switch): -1; higher = weaker reporter binding
- Experimental Conditions: input ligand: FMN 200 uM
Quick rule: apparent KD of MS2 coat protein of at least 50 nM means Criterion met, below that means Criterion not met.

Previously resolved entries follow.
| Chain Sequence | System Name | Class Name |
| --- | --- | --- |
| UGUUGUCGCGUAGGAUAUGAGGAUCACCCAUAUAAAGGAUAUGAAAAGAAGGUUCUGAGGAUUACCCAGAAGGACGGGACAACU [pwkr exNG2 2xF5 2xFMN.17] (Eterna round: R96, puzzle: Exclusion NG 2) | MS2 coat protein | Criterion met |
| AACCAGCGAGGAUAUGCUUGCGCUUGUUCUGGUUAUAAUCGACUUGAGGAUCACCCAAGUAGAAGGUGCUGGCG [EX2 #56] (Eterna round: R97, puzzle: Exclusion 2) | MS2 coat protein | Criterion not met |
| GUUUUCAGACGGAGAUCCUACAUGAGGAUCACCCAUGUCUCACUAGUUUUUUGCUCGUCUUAUCCUCCUCUGUUCUC [Elimod 29 - Jieux - Sensor, turn-off variant 1] (Eterna round: R97, puzzle: Sensor, turn-off variant 1) | MS2 coat protein | Criterion met |
| CAGUACUGAGGAUAUACAUGAGGAUCACCCAUGUUGAGAUGAAAAGAAAGAGUUAAAUGUAGAAGGCGGUGCUG [JR_Ex3_Sub047] (Eterna round: R97, puzzle: Exclusion 3) | MS2 coat protein | Criterion met |
| AUCAGCUCGUCAGGAUAUGCACAUGAGGAUCACCCAUGUAAGAUCAAGCUGCUUCGGCAGCAAGUGCAGAAGGGACGAGCUGAU [ENG2/9-B2] (Eterna round: R96, puzzle: Exclusion NG 2) | MS2 coat protein | Criterion met |
| AGCCCUGCAGGAUAUGUCGAGGAUAACAUGAGGAUCACCCAUGUGACCGAUUGUUAGACUGCAGAAGGGCAUGGGA [salish99_ex5_r4_304] (Eterna round: R97, puzzle: Exclusion 5) | MS2 coat protein | Criterion met |
| UUUAAACAUGAGGAUCACCCAUGUGAGGAUAUACGAAUGCAGACACACACGGAUGCAAGUAGAAGGCACAACGC [Design #11] (Eterna round: R97, puzzle: Exclusion 1) | MS2 coat protein | Criterion not met |
| AAAAUGGCAGGAUAUACAUGAGGAUCACCCAUGUUCGUCUUUACAUGUAAAAUGCUCUGUAGAAGGGCCUCGAA [Quised] (Eterna round: R97, puzzle: Exclusion 3) | MS2 coat protein | Criterion not met |

Ask | Hello, I need to know if GAAAAGUAAGGAUAUGUCCACAGUGAGGAAACUCACUGUGGACAGAAGGUACAUGAGGAUCACCCAUGUUCCUC [ExDelusion 4 - Jieux - Exclusion 4] (Eterna round: R97, puzzle: Exclusion 4) has measured apparent KD of MS2 coat protein not below 50 nM. Thanks!
Reply | Criterion met

Ask | Moving on to the next sequence: UACGUGUCAGGAUAUUUGAAGCGAAUCACGAGCAUUCGCGUGGAGAAGGGACAUGAGGAUCACCCAUGUAGGCG [Eternabot (L1) Solution 32] (Eterna round: R97, puzzle: Exclusion 4)
Reply | Criterion met

Ask | Queued: UUUAGUCGUGACAUGGGUGACAUGAGGAUCACCCAUGUCACAAGCUUCUCGCUCGUCUUAUAAUUAACCCAUGUCAC [LRO Sensor-off var1-14 mod of Stov1-13-A1 by Brourd] (Eterna round: R97, puzzle: Sensor, turn-off variant 1)
Reply | Criterion not met

Ask | // same read-out, input: GAUUAACAUGAGGAUCACCCAUGUGAGGAUAUGGAAUGGCUCAUUGUCUGAUUUCCUUCUAGAAGGCACAUCUU [1986#4c] (Eterna round: R97, puzzle: Exclusion 1)
Reply | Criterion met

Ask | # iterate: AGAGUACAUGUGAGGAUAUCUGGAGUGUCCCACGAAGAGAAGGCACAUGAGGAUCACCCAUGUCGUCCCGGUUU [Eternabot (L1) Solution 28] (Eterna round: R97, puzzle: Brourd's mod of Exclusion 4)
Reply | Criterion not met

Ask | Do the same for ACAACAUGAGGAUCACCCAUGUGUGUUGUCCCAUGUGUGUAUAAGGAUAUAUGAAGGAAGGAGGAAUAGAAGGUAUAGAAGGAG [Am I even doing this right] (Eterna round: R96, puzzle: Exclusion NG 3) please
Reply | Criterion met

Ask | Next sequence up: GCGGACUUGAUCGUGAGAUCAGAGACAUGAGGAUCACCCAUGUAGGAUAUCGAUUCGUUUCGAAUCGAGAAGGGCGUGGUCCGC [JL denovo 15] (Eterna round: R96, puzzle: Exclusion NG 3)
Reply | Criterion met

Ask | Okay, and UCUUACUGAGGAUAUACAUAGAUUUACAUGAGGAUCACCCAUGUUCCUCUAUGUAUAAAUGUAGAAGGCAGAAGAU [Mat - Exclusion 5 - JL Mod - D54] (Eterna round: R97, puzzle: Exclusion 5) ?
Reply | Criterion met

Ask | Then what about the sequence ACAUGAGGAUCACCCAUGUAAUGAUGGGUACUAUAUUAUUCGUAGGAUAUCGUUGUUAGUUUGUGCGAGAAGGACGUUUGCCUU [JR_ExcNG3_Sub056] (Eterna round: R96, puzzle: Exclusion NG 3) ?
Reply | Criterion met
